Data origin, for the record: paper PMC9415646

measurementProtocol: Redox potential of the nitro group by cyclic voltammetry
Type: physicochemical
recordedConditions: cyclic voltammetry in DMSO, corrected versus NHE
Description: Voltammetric measurements were carried out with a potentiostat Autolab PGSTAT100 (ECO Chemie, Utrecht, The Netherlands) controlled by GPES 4.09 software (ECO Chemie, Utrecht, The Netherlands). Experiments were performed at room temperature in a homemade airtight three–electrode cell connected to a vacuum/argon line. […] Experimental peak potentials were measured versus SCE and converted to NHE by adding 0.241 V.
List of E0 (redox potential of the nitro group) values.
Only the number, expressed in V, is required.

Examples from the recorded data:
{"compound": "O=[N+]([O-])c1c(CS(=O)(=O)c2ccc(OC(F)(F)F)cc2)nc2c(Br)cc(Cl)cn12", "unitsOfMeasure": "V", "E0 (redox potential of the nitro group)": "−0.62"}
{"compound": "COc1ccc(S(=O)(=O)Cc2nc3c(Sc4ccc(Cl)cc4)cc(Cl)cn3c2[N+](=O)[O-])cc1", "unitsOfMeasure": "V", "E0 (redox potential of the nitro group)": "−0.66"}
{"compound": "O=[N+]([O-])c1c(CS(=O)(=O)c2ccccc2)nc2c(Br)cc(Cl)cn12 [Hit A, reference compound]", "unitsOfMeasure": "V", "E0 (redox potential of the nitro group)": "−0.65"}

Fill blank: measured E0 (redox potential of the nitro group) of the compound `CC(C)S(=O)(=O)Cc1nc2c(Sc3ccc(Cl)cc3)cc(Cl)cn2c1[N+](=O)[O-]` is ____.
−0.63

Fill blank: measured E0 (redox potential of the nitro group) of the compound `COc1ccc(S(=O)(=O)Cc2nc3c(Br)cc(Cl)cn3c2[N+](=O)[O-])cc1` is ____.
−0.64

Fill blank: measured E0 (redox potential of the nitro group) of the compound `CC(C)S(=O)(=O)Cc1nc2c(Br)cc(Cl)cn2c1[N+](=O)[O-]` is ____.
−0.65

Fill blank: measured E0 (redox potential of the nitro group) of the compound `O=[N+]([O-])c1c(CS(=O)(=O)C2CC2)nc2c(Br)cc(Cl)cn12` is ____.
−0.63

Fill blank: measured E0 (redox potential of the nitro group) of the compound `O=[N+]([O-])c1c(CS(=O)(=O)CCC(F)(F)F)nc2c(Sc3ccc(Cl)cc3)cc(Cl)cn12` is ____.
−0.64

Fill blank: measured E0 (redox potential of the nitro group) of the compound `O=[N+]([O-])c1c(CS(=O)(=O)CCC(F)(F)F)nc2c(-c3ccncc3)cc(Cl)cn12` is ____.
−0.61

Fill blank: measured E0 (redox potential of the nitro group) of the compound `O=[N+]([O-])c1c(CS(=O)(=O)c2ccc(Cl)cc2)nc2c(Br)cc(Cl)cn12` is ____.
−0.62

Fill blank: measured E0 (redox potential of the nitro group) of the compound O=[N+]([O-])c1c(CS(=O)(=O)c2ccccc2)nc2c(Sc3ccc(Cl)cc3)cc(Cl)cn12 [Hit B, reference compound] is ____.
−0.63

Fill blank: measured E0 (redox potential of the nitro group) of the compound `O=[N+]([O-])c1c(CS(=O)(=O)c2ccc(Cl)cc2)nc2c(Sc3ccc(Cl)cc3)cc(Cl)cn12` is ____.
−0.68

Fill blank: measured E0 (redox potential of the nitro group) of the compound `O=[N+]([O-])c1c(CS(=O)(=O)C2CC2)nc2c(Sc3ccc(Cl)cc3)cc(Cl)cn12` is ____.
−0.65

Fill blank: measured E0 (redox potential of the nitro group) of the compound CSc1ccc(OCc2ncc([N+](=O)[O-])n2C)cc1 [Fexinidazole, reference compound] is ____.
−0.83

Fill blank: measured E0 (redox potential of the nitro group) of the compound `O=[N+]([O-])c1c(CS(=O)(=O)c2ccc(F)cc2)nc2c(Br)cc(Cl)cn12` is ____.
−0.64

Fill blank: measured E0 (redox potential of the nitro group) of the compound `O=[N+]([O-])c1c(CS(=O)(=O)c2ccc(OC(F)(F)F)cc2)nc2c(Sc3ccc(Cl)cc3)cc(Cl)cn12` is ____.
−0.66

Fill blank: measured E0 (redox potential of the nitro group) of the compound `O=[N+]([O-])c1c(CS(=O)(=O)c2ccc(F)cc2)nc2c(Sc3ccc(Cl)cc3)cc(Cl)cn12` is ____.
−0.61

Fill blank: measured E0 (redox potential of the nitro group) of the compound `O=[N+]([O-])c1c(CS(=O)(=O)c2ccc(C(F)(F)F)cc2)nc2c(Sc3ccc(Cl)cc3)cc(Cl)cn12` is ____.
−0.56
